Some compounds, each annotated with its measured pIC50.
Target: G1 APOL1 (Homo sapiens, UniProt O14791, I384M/S342G)
Construct: expressed in transfected cells
Sequence (O14791 28-398 S342G/I384M): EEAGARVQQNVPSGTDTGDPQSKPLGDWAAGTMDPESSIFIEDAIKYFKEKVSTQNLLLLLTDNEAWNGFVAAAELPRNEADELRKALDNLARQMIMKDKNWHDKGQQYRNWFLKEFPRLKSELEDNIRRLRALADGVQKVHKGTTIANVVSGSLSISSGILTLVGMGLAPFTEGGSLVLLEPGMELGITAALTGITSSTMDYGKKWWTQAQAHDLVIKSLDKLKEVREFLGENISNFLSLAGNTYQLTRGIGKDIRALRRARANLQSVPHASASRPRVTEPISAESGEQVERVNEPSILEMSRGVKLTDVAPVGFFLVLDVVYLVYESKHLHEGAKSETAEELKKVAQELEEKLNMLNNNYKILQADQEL
Test: Acute APOL1 Thallium Assay with Inducible Stable Clones of HEK 293 Cells
Type: cell-based
Details: HEK 293 inducible stable clones, G1 APOL1; read-out: Thallium Assay (IC50)
pIC50: −log10 of the molar value.
parameter.measured: pIC50

[
  {
    "compound": "CC(C)(CO)NC(=O)OCCc1c(-c2ccc(F)cc2)[nH]c2c(F)cc(F)cc12 [Compound 435]",
    "parameter.measured": "pIC50",
    "reported": "> 6.60"
  },
  {
    "compound": "N#CC(NC(=O)OCCc1c(-c2ccc(F)cc2)[nH]c2c(F)cc(F)cc12)C(N)=O (stereo not shown) [Compound 456]",
    "parameter.measured": "pIC50",
    "reported": "6.00 to 6.60"
  },
  {
    "compound": "Cc1nc(NC(=O)CCc2c(-c3ccc(F)cc3)[nH]c3c(F)cc(F)cc23)no1 [Compound 92]",
    "parameter.measured": "pIC50",
    "reported": "< 6.00"
  },
  {
    "compound": "O=C(NCCc1c(-c2ccc(F)cc2)[nH]c2c(F)cc(F)cc12)c1ccncc1 [Compound 402]",
    "parameter.measured": "pIC50",
    "reported": "< 6.00"
  },
  {
    "compound": "CC[C@@H](CO)NC(=O)OCCc1c(-c2ccc(F)cc2)[nH]c2c(F)cc(F)cc12 [Compound 446]",
    "parameter.measured": "pIC50",
    "reported": "> 6.60"
  },
  {
    "compound": "O=C(NCCc1c(-c2ccc(F)cc2)[nH]c2c(F)cc(F)cc12)c1c[nH]cn1 [Compound 353]",
    "parameter.measured": "pIC50",
    "reported": "6.00 to 6.60"
  },
  {
    "compound": "COCC(C)NC(=O)CCc1c(-c2ccc(F)cc2)[nH]c2ccc(F)cc12 (racemic) [Compound 30]",
    "parameter.measured": "pIC50",
    "reported": "6.00 to 6.60"
  },
  {
    "compound": "Cc1cc(F)c2[nH]c(-c3ccc(F)cc3)c(CCC(=O)NC(CO)CO)c2c1 [Compound 219]",
    "parameter.measured": "pIC50",
    "reported": "< 6.00"
  },
  {
    "compound": "CC(CC(=O)NCCc1c(-c2ccc(F)cc2)[nH]c2c(F)cc(F)cc12)C(N)=O (racemic) [Compound 335]",
    "parameter.measured": "pIC50",
    "reported": "< 6.00"
  },
  {
    "compound": "O=C(CCc1c(-c2ccc(F)cc2)[nH]c2c(F)cc(F)cc12)NC1(CO)CCC1 [Compound 91]",
    "parameter.measured": "pIC50",
    "reported": "> 6.60"
  },
  {
    "compound": "CC(C)C(CO)NC(=O)OCCc1c(-c2ccc(F)cc2)[nH]c2c(F)cc(F)cc12 (stereo not shown) [Compound 467]",
    "parameter.measured": "pIC50",
    "reported": "6.00 to 6.60"
  },
  {
    "compound": "CNC(=O)C(=O)NCCc1c(-c2ccc(F)cc2)[nH]c2c(F)cc(F)cc12 [Compound 359]",
    "parameter.measured": "pIC50",
    "reported": "< 6.00"
  },
  {
    "compound": "O=C(CCc1c(-c2ccc(F)cc2)[nH]c2c(Cl)cccc12)N[C@@H](CO)C(F)F [Compound 231]",
    "parameter.measured": "pIC50",
    "reported": "> 6.60"
  },
  {
    "compound": "O=C(CCc1c(-c2ccc(F)cc2)[nH]c2c(F)cc(F)cc12)Nc1nccs1 [Compound 167]",
    "parameter.measured": "pIC50",
    "reported": "< 6.00"
  },
  {
    "compound": "C[C@]1(O)C[C@@H](NC(=O)OCCc2c(-c3ccc(F)cc3)[nH]c3c(F)cc(F)cc23)C1 [Compound 489]",
    "parameter.measured": "pIC50",
    "reported": "< 6.00"
  },
  {
    "compound": "C[C@@H](CO)NC(=O)OCCc1c(-c2ccc(F)cc2)[nH]c2c(F)cc(F)cc12 [Compound 440]",
    "parameter.measured": "pIC50",
    "reported": "> 6.60"
  }
]

From: patent US20230014907A1
